- systemTested: Caspase-3 (Homo sapiens, UniProt P42574);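 also: Dose-response selectivity test against caspase-3 for candidate inhibitors of sentrin-specific proteases (SENPs)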
- Sequence (P42574 whole entry): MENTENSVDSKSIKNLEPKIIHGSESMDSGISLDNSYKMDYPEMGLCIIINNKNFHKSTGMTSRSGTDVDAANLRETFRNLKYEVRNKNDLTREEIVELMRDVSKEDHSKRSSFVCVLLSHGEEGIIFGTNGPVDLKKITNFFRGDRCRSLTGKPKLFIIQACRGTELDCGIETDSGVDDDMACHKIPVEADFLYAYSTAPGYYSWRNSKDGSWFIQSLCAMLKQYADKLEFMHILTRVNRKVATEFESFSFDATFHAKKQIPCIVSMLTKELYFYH
- Format: functional
Activity calls are given as the source filed them.
IC50: recorded values

input: For the record "O=C(Nc1ccc(C#Cc2ccccc2)cc1)C1CC1" , what value of IC50 is listed for Caspase-3 (Homo sapiens, UniProt P42574)?
output: 43.6 µM (active)

input: Hello, I am looking for reported IC50 with Caspase-3 (Homo sapiens, UniProt P42574) for "CCCCn1c(NC(=O)c2ccco2)c(C(=O)OCC)c2nc3ccccc3nc21" . Could you help?
output: 15.8 µM (active)

input: Any idea what IC50 came out for "C/C(=N\OC(=O)c1ccccc1F)c1nccs1" on Caspase-3 (Homo sapiens, UniProt P42574)?
output: 71.1 µM (active)

Field: next compound
input: GET /values?readout=IC50&system=Caspase-3 (Homo sapiens, UniProt P42574)&item= "Cc1ccccc1/C=C\c1nc(O)c2ccccc2n1"
output: 3.24 µM (active)
